Tested on: MS2 coat protein
Procedure text: apparent KD of MS2 coat protein; designed switch direction (-1 OFF switch, 1 ON switch): 1; higher = weaker reporter binding
Protocol conditions: input ligand: microRNA oligo, concentration not stated
Field: apparent KD of MS2 coat protein. Provide a value for each of the sequences that follow.
Numbers only, in nM.

Consider the following illustrative entries.
[[record]]
biopolymer_sequence = "GCCAUCGAAUGAGGAUAUGGCACCGUUUCGGUGCCAGAAGGCAUGUCAAUUGACAUGAGGAUCACCCAUGUAUUAUCGAUGGCA [JL Fiskers NG1ss - 33 mod 5] (Eterna round: R96, puzzle: Same State NG 1)"
test_target = "MS2 coat protein"
reading_unit = "nM"
assay_result = 712

[[record]]
biopolymer_sequence = "AGCGUCCACACAGGAUAUCACCUGCACUGCAGGUGAGAAGGGUGACCGGUGCGCAAUAACGACAUGAGGAUCACCCAUGUAAAA [Vegea] (Eterna round: R96, puzzle: Same State NG 1)"
test_target = "MS2 coat protein"
reading_unit = "nM"
assay_result = 38.3


Each of the following entries comes with a recorded value; kindly state apparent KD of MS2 coat protein for each.
1. CCAUAACAGUGAGGAUAUUGUUGCGAUAAGUGACGAGAAGGCAUUCAUGUGAAAUAAACAUACAUGAGGAUCACCCAUGUUGUA [Omei SS(NG)1 Bv2] (Eterna round: R96, puzzle: Same State NG 1)
2. AGACUACAACCUCGAACAUGAGGAUCACCCAUGUAAAGAUCCAAGGAUAUGGACAGGCCGAGCUACCAGAAGGUGGAAAGAGCC [Eternabot solution 7] (Eterna round: R96, puzzle: Same State NG 3)
3. UGGUACAUGGGAGGAUAUGGGCAUGAGACAUGAGGAUCACCCAUGUUAUAAAAGCCGAGAGGCAUCUAGAAGGCCCAUGUACCU [JL SSNG1 3.91] (Eterna round: R96, puzzle: Same State NG 2)
4. GAGUGGUGGAGAGGAUAUACAUUGAUAUUCACUGUAGAAGGUUCUAACAUGAGGAUCACCCAUGUAGGACUAUUCCUGAGAGUU [Parity 54 - Jieux - Same State NG 1] (Eterna round: R96, puzzle: Same State NG 1)

1. 19.8
2. 38.4
3. 95.2
4. 8.99

Each of the following entries comes with a recorded value; kindly state apparent KD of MS2 coat protein for each.
1. UAUCCAUAGAUAGGAUAUCAGUAUACAUGAGGAUCACCCAUGUUAUACUUGGUUUUAAGUUAGUCUGAGAAGGAUCUUGAUGAA [SameState NG2 #4] (Eterna round: R96, puzzle: Same State NG 2)
2. AAAGAAAACGCAGGAUAUCCCGGAAUGGAAACGGGAGAAGGGUGACCGGUACAUGAGGAUCACCCAUGUAGAGCACAGGCUCAA [Sousdi] (Eterna round: R96, puzzle: Same State NG 1)
3. CCGAUAAAUGGAGGAUAUGGAGCCUUAUUGGCUCCAGAAGGCUAAUAACAUGAGGAUCACCCAUGUCGGCGGUCUAAUGACCGA [Eli NG1ss - 51] (Eterna round: R96, puzzle: Same State NG 1)

1: 11; 2: 39.4; 3: 46.4

====

Field: apparent KD of K4 kissing-loop reporter. Provide a value for each of the sequences that follow.
System: K4 kissing-loop RNA reporter
Procedure text: apparent KD of K4 kissing-loop reporter; higher = weaker reporter binding
Protocol conditions: Eterna round: R107; input ligand: none
One number for each entry, in µM.

Consider the following illustrative entries.
[[record]]
biopolymer_sequence = "AGCGUCUGAAGAGGAUAUGACCAGUGAUGUUGGUUACUACCUCAAAUUAGUGUCUCGUCAAAAUCGUCAGAAGGCUUCGACGAGC [#09 K4 FMN B Exclusion]"
quantity_name = "apparent KD of K4 kissing-loop reporter"
assay_result = 0.0957

[[record]]
biopolymer_sequence = "GUAUCGCUAGGAGGAUAUUUCAAUUCGCCUAUAAAUGGUGAUACGGAGUGAUGUUCCGAUUUACGGAAAGAAGGCCUAGUGAUAC [FMN B 8]"
quantity_name = "apparent KD of K4 kissing-loop reporter"
assay_result = 0.283

[[record]]
biopolymer_sequence = "AUGUCUUAUAAACUCAUGGUUUCGAUCGAUACCAGUAGCGAGAGUUACCCUUGGCAGCGACAUGAGUGAUGUUCAUGUACGAAGA [KL-XTheoA5]"
quantity_name = "apparent KD of K4 kissing-loop reporter"
assay_result = 0.103

[[record]]
biopolymer_sequence = "GAGGUAUGCGCAGUGAUGUUGCGACGAGAUACCAGUCGUUCUGUCGACCCUUGGCAGCUCCCACCAGACGUACGAGUUUGUGUUG [theeternabot_sameState_KL_Theo_A_10]"
quantity_name = "apparent KD of K4 kissing-loop reporter"
assay_result = 0.113

[[record]]
biopolymer_sequence = "AGGUUUUGAUUAGGAUAUGCACUGACGACGAGAAUAUAGUGAUGUUAUAUACUACGAAUUAGUAGAGUAGAAGGGAUUGAGGUUU [SSFMNB.Y]"
quantity_name = "apparent KD of K4 kissing-loop reporter"
assay_result = 0.33


Now let's try a different one.
Could you tell me which apparent KD of K4 kissing-loop reporter is on file for UUAGGAGUGGGAGGAUAUCCUAAUAUGGGUGAUGUUAGCGAUGUUGAAAGUGUAGUGAUGUUGUGCGGAGAAGGUCCAGUGUUGA [BDazzled - #13 - Exc. FMN B] ?
0.178

====

Test system: MS2 coat protein
Procedure text: apparent KD of MS2 coat protein, switch ON state; designed switch direction (-1 OFF switch, 1 ON switch): -1; higher = weaker reporter binding
Protocol conditions: FMN input: 0 or 200 uM; Eterna round: R93 (includes R88 designs)
Field: apparent KD of MS2 coat protein. Provide a value for each of the sequences that follow.
Units required after the number.

Consider the following illustrative entries.
[[record]]
biopolymer_sequence = "GUAAACCUAGGAUAUACAUGAGGAUCACCCAUGUAAAAUUUAAUAAAAAGAAAAUCAAGUAGAAGGAGGUAGAU [JR_Exc003_Sub1224]"
test_target = "MS2 coat protein"
assay_result = "25.4 nM"

[[record]]
biopolymer_sequence = "AGCUAGUCAGGAUAUACGCAAACGAACGAAGCAGAGAAGGGACAUGAGGAUCACCCAUGUAGAAGGGACUAGCA [Diamond 31]"
test_target = "MS2 coat protein"
assay_result = "28.8 nM"

[[record]]
biopolymer_sequence = "GCAAAGUGAGGAUAUACGCGAACAAAAAAAAAAAAGAAAGCGUAGAAGGCACAUGAGGAUCACCCAUGUCCAGC [Alfred 64% 2]"
test_target = "MS2 coat protein"
assay_result = "23.5 nM"

[[record]]
biopolymer_sequence = "AAAAAACAUGAGGAUCACCCAUGUGAGGAUAUCAAAUAAAGGCACAUGAGAAGGCAUAUGAGAAGGCACAUGAA [Meechl MS2 Ex1 2]"
test_target = "MS2 coat protein"
assay_result = "41.4 nM"

[[record]]
biopolymer_sequence = "AGGAAACAUGAGGAUCACCCAUGUGAGGAUAUGAGAAAGAAAAGAAAAGAAAGAAGAAUCAGAAGGCACAAGAA [Raneb]"
test_target = "MS2 coat protein"
assay_result = "42.8 nM"

[[record]]
biopolymer_sequence = "AGCUAGAGAGGAUAUACAUAAAAAAAAAAAGUCUGAUCCCUACAUGAGGAUCACCCAUGUAGAAGGCUCUGGCA [Ex2 Design 157: Sub-opt 21]"
test_target = "MS2 coat protein"
assay_result = "38.1 nM"


Now let's try a different one.
Short answer please: apparent KD of MS2 coat protein, MS2 coat protein, entry AGAAAACAUGAGGAUCACCCAUGUAAGGAUAUGCUGAAAAAACACUGGAAACAGUGCAGCAGAAGGUACAAAGA [Mat - Exclusion 1 - Eli mod - D99]
22.1 nM

====

Tested on: K4 kissing-loop RNA reporter;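 note: bound reporter read as fluorescence of individual clusters on recovered sequencing chips by microscopy, with normalized cluster intensities fitted with a binding model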
Procedure text: apparent KD of K4 kissing-loop reporter; higher = weaker reporter binding
Protocol conditions: Eterna round: R107; input ligand: theophylline 20 uM
# label = true if apparent KD of K4 kissing-loop reporter >= 300 nM else false

[[record]]
biopolymer_sequence = "AGCAAUAUCACGGCCGCCACUGAAUAUUGUUUUUAUAUUUAGAAAUCUUGCCAGUGAUGUUGGUUCAGGACCGGGUGAGUUAAUA [JR_SSTryptoB_Sub005]"
test_target = "K4 kissing-loop RNA reporter"
class_label = "true"

[[record]]
biopolymer_sequence = "UGGACCUGACUCGAUAAGAGUCAAGGAGAUACCAGCCACGAAAGUGGCCCUUGGCAGCUCUGCCAGUGAUGUUGGUCAAGGUCCU [#SwitchBubble 7 #StaticStem]"
test_target = "K4 kissing-loop RNA reporter"
class_label = "true"

[[record]]
biopolymer_sequence = "GUGCGCGGUGCGGCCGCCACUCGGAUGCGAGUGAUGUUCGCGGGACGGACGCAAGUCCGUCAUUCGAGGACCGGGCAUGGCUGUA [#2 Same State - Tryptophan B Attempt #5 (HarryS)]"
test_target = "K4 kissing-loop RNA reporter"
class_label = "false"

[[record]]
biopolymer_sequence = "ACGUCACGUAUACUGGUGGUUUCGAUCGAUACCAGUAGCGAGAGUUACCCUUGGCAGCGACAUGAGUGAUGUUUAUGUAUGAUGA [#13 K4 Theophylline A Exclusion]"
test_target = "K4 kissing-loop RNA reporter"
class_label = "true"


Pending sequence:
Is it the case that GCUAUGGUAGGAAGGAGCGCUUAAUUACUAAUAAGAGUGAUGUUCGAUAGUAGGUAUUUGUAGCAGGUAGGUCGCCUACUAUAGC [KL-Arg B24] has apparent KD of K4 kissing-loop reporter reaching or exceeding 300 nM?
false
